Attribution: patent US20090298765A1

molecular target: human OT7T175 (metastin receptor) (human, UniProt Q969F8 1-398); experiment: cell-based or functional assay
Sequence (Q969F8 whole entry L364H): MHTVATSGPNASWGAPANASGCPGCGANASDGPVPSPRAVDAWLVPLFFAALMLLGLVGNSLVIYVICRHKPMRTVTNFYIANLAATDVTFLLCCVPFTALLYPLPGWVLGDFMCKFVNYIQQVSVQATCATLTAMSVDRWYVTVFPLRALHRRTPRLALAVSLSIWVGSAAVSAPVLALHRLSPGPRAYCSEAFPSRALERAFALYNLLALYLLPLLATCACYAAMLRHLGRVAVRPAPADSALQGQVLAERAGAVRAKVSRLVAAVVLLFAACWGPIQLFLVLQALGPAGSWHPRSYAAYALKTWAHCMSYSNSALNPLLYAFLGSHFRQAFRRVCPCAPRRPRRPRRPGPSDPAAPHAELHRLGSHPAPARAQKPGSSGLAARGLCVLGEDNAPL
Starred links: 1 amine or outer side, 2 acyl side, 3 side chain; linkers in the order of their positions; H or OH if unused. Non-standard residues stand in square brackets, D forms with d. No end group written: not given here. *: point of attachment. Tyr(Me) = COc1ccc(C[C@H](N[*:1])C(=O)[*:2])cc1; Arg(Me) = CNC(=N)NCCC[C@H](N)C(=O)O; Fmoc = O=C(OCC1c2ccccc2-c2ccccc21)*; Lys(Me2) = CN(C)CCCC[C@H](N)C(=O)O; Cha = N[C@@H](CC1CCCCC1)C(=O)O
Parameter: Ca ion level-increasing activity (FLIPR)

[[record]]
binder = "YNWNSFSLRF-NH2 (also called Compound No. 101) [[Ser7]MS10]"
parameter = "Ca ion level-increasing activity (FLIPR)"
data_value = "10 x Metastin (1-54)"

[[record]]
binder = "YNWNSXGLRF (Cha6; C-terminal amide, also called Compound No. 156) [[Cha6]MS10]"
parameter = "Ca ion level-increasing activity (FLIPR)"
data_value = "2 x Metastin (1-54)"

[[record]]
binder = "YNWNSFGLR[Tyr(Me)]-NH2 (also called Compound No. 18) [[Tyr(Me)10]MS10]"
parameter = "Ca ion level-increasing activity (FLIPR)"
data_value = "1 x Metastin (1-54)"

[[record]]
binder = "YNWNSXGLRF (Nal(1)6; C-terminal amide, also called Compound No. 151) [[Nal(1)6]MS10]"
parameter = "Ca ion level-increasing activity (FLIPR)"
data_value = "1 x Metastin (1-54)"

[[record]]
binder = "YNWNSFGLRW-NH2 (also called Compound No. 134) [[Trp10]MS10]"
parameter = "Ca ion level-increasing activity (FLIPR)"
data_value = "30 x Metastin (1-54)"

[[record]]
binder = "DNWNSFGLRF-NH2 (also called Compound No. 75) [[Asp1]MS10]"
parameter = "Ca ion level-increasing activity (FLIPR)"
data_value = "1 x Metastin (1-54)"

[[record]]
binder = "[dY]NWNSFGLRF-NH2 [[D-Tyr1]MS10]"
parameter = "Ca ion level-increasing activity (FLIPR)"
data_value = "30 x Metastin (1-54)"

[[record]]
binder = "[dY]N[Cha]NSFGL[Arg(Me)]F-NH2 (N-terminus assumed; SMILES CNC(=N)NCCC[C@H](NC(=O)[C@H](CC(C)C)NC(=O)CNC(=O)[C@H](Cc1ccccc1)NC(=O)[C@H](CO)NC(=O)[C@H](CC(N)=O)NC(=O)[C@H](CC1CCCCC1)NC(=O)[C@H](CC(N)=O)NC(=O)[C@H](N)Cc1ccc(O)cc1)C(=O)N[C@@H](Cc1ccccc1)C(N)=O, also called Compound No. 171) [[D-Tyr1,Cha3,Arg(Me)9]MS10]"
parameter = "Ca ion level-increasing activity (FLIPR)"
data_value = "10 x Metastin (1-54)"

[[record]]
binder = "YNWNSFGL[Lys(Me2)]F-NH2 [[Lys(Me2)9]MS10]"
parameter = "Ca ion level-increasing activity (FLIPR)"
data_value = "0.5 x Metastin (1-54)"

[[record]]
binder = "Fmoc-NWNSFGLRF-NH2 [des(1)-Fmoc-MS10]"
parameter = "Ca ion level-increasing activity (FLIPR)"
data_value = "5 x Metastin (1-54)"

[[record]]
binder = "SNWNSFGLRF-NH2 [[Ser1]MS10]"
parameter = "Ca ion level-increasing activity (FLIPR)"
data_value = "1 x Metastin (1-54)"

[[record]]
binder = "YNWNSFGARF-NH2 [[Ala8]MS10]"
parameter = "Ca ion level-increasing activity (FLIPR)"
data_value = "1 x Metastin (1-54)"

[[record]]
binder = "YNWNSFGLRY-NH2 (also called Compound No. 109) [[Tyr10]MS10]"
parameter = "Ca ion level-increasing activity (FLIPR)"
data_value = "20 x Metastin (1-54)"

